B1: TRIM39 (parent)
chain: ERDFPCPVCRKTSRYRSLRPNRQL

- Variants of: B1
- Assay Text: protein stability index of a GFP-peptide fusion (GPS, HEK-293T) (PSI 1-6); higher = more stable;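 further: lentivirally expressed fusions sorted by FACS into six bins by GFP to DsRed ratio, PSI derived from sequencing read proportions per bin multiplied by bin number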
- Condition Label: c terminus: a fixed tail appended
# Lookup of reported protein stability index keyed by entry
Lab note: jot the number down without any unit.

P20E = 2.04
R22Q = 1.95
S13A = 2.01
T12C = 2
R2M = 2.28
C6Y = 3.21

Given the variant C9F , what is its reported protein stability index?
2.45
